Test system: SNB-75
Procedure details: NCI tumour cell line growth inhibition, 48 h
Activity calls are given as the source filed them. Cut-off read from the data, not from the text of the source: active = GI50 up to about 1.1 µM and inactive = higher.
Endpoint label: GI50

{"Compound": "CN(C)CCNC(=O)c1cccc2nc3cccc(F)c3nc12", "GI50": "2.62 µM (inactive)"}

Kindly note the recorded GI50 for CCOC(=O)c1[nH]c2cccc3c2c1CC[C@H](NC(=O)C(F)(F)F)C3=O , which is 24.3 µM (inactive)

Kindly note the recorded GI50 for CC(C)OP(=O)(OC(C)C)c1ncn(-c2ccc([N+](=O)[O-])cc2)n1 , which is 41.1 µM (inactive)

Kindly note the recorded GI50 for C/C(=N\O)c1cccc[n+]1Cc1ccccc1 , which is > 100 µM (inactive)

Kindly note the recorded GI50 for CC(C)(C)CC(C)(C)c1cc2c(O)c(c1)Cc1cc(C(C)(C)CC(C)(C)C)cc(c1O)Cc1cc(C(C)(C)CC(C)(C)C)cc(c1O)Cc1cc(C(C)(C)CC(C)(C)C)cc(c1O)Cc1cc(C(C)(C)CC(C)(C)C)cc(c1O)Cc1cc(C(C)(C)CC(C)(C)C)cc(c1O)C2 , which is > 100 µM (inactive)

Kindly note the recorded GI50 for COc1cccc(C(C#N)NC23CC4CC(CC(C4)C2)C3)c1 (centres undefined) , which is > 100 µM (inactive)

---

Test system: SN12C
Procedure details: NCI tumour cell line growth inhibition, 48 h
The source made the active and inactive calls. Cut-off read from the data, not from the text of the source: active = GI50 up to about 1.1 µM and inactive = higher.
Endpoint label: GI50

Kindly note the recorded GI50 for CCC(=O)Nc1ccc(/N=C/c2cccc(Oc3ccccc3)c2)cc1 , which is > 100 µM (inactive)

Kindly note the recorded GI50 for CC(=O)OC1CCn2c1nc1c2C(=O)C=C(N2CC2)C1=O (configuration not stated) , which is 0.65 µM (active)

Kindly note the recorded GI50 for CC(=O)O/C=C1/C[C@H]2[C@@H]3CCC4CC(C(C)=O)CC[C@]4(C)[C@H]3CC[C@]2(C)C1=O (some centres not stated) , which is > 100 µM (inactive)

Kindly note the recorded GI50 for On1c(-c2ccccc2)c(-c2c(-c3ccccc3)n(O)c3ccccc23)c2ccccc21 , which is 46.3 µM (inactive)

Kindly note the recorded GI50 for O=[N+]([O-])/C(C(Cl)=C(Cl)Cl)=C(\Nc1cccc2ccccc12)n1nnc2ccccc21 , which is > 100 µM (inactive)

Kindly note the recorded GI50 for CN(C)c1nc(Oc2nc(N(C)C)nc(N(C)C)n2)nc(N(C)C)n1 , which is > 100 µM (inactive)

Kindly note the recorded GI50 for CCOC(=O)c1nnc2c(C#N)c(-c3ccccc3)c(C)n2c1N , which is 37.8 µM (inactive)

Kindly note the recorded GI50 for O=C(CCl)Nc1ccc(-c2nc3ccccc3s2)cc1 , which is 1.87 µM (inactive)

Kindly note the recorded GI50 for COC1=C(OC)C(=O)c2cc(SC)c(=O)c(SC)cc2C1=O , which is 14.7 µM (inactive)

Kindly note the recorded GI50 for O=C(O)c1cncc(C(=O)O)c1 , which is > 100 µM (inactive)

Kindly note the recorded GI50 for Cc1ccccc1/N=N/c1ccc(/N=N/c2c(O)ccc3ccccc23)c(C)c1 , which is > 100 µM (inactive)

---

System: LOX IMVI
Procedure details: NCI tumour cell line growth inhibition, 48 h
Calls of active or inactive are those of the source. Rule as the data show it: active = GI50 up to about 1.1 µM and inactive = higher.
Endpoint label: GI50

Known GI50 results, listed for orientation:
{"Molecule": "CN1CCN(c2cc3nc4cc(O)cc(O)c4c(O)c3cc2N)CC1", "GI50": "16.2 µM (inactive)"}
{"Molecule": "Cc1nc(-c2ccccc2)cn2c1nc1ccccc12", "GI50": "20.8 µM (inactive)"}
{"Molecule": "CC(=O)OC12CC(C(F)(F)F)(C(F)(F)F)OC1(OC(C)=O)CC(C(F)(F)F)(C(F)(F)F)O2 (stereo unspecified)", "GI50": "1.73 µM (inactive)"}
{"Molecule": "O=C1NC2OCC(O)C(O)C2O1 (stereo unspecified)", "GI50": "> 100 µM (inactive)"}
{"Molecule": "CCOP(=O)(OCC)C(C(=O)OC)C(=O)C(=O)Nc1ccc(Cl)cc1Cl (stereo unspecified)", "GI50": "> 100 µM (inactive)"}

Kindly note the recorded GI50 for COc1ccc(/C=C2\N=C(c3ccccc3)N(C3Nc4cc5c(cc4S3)NC(N3C(=O)/C(=C/c4ccc(OC)cc4)N=C3c3ccccc3)S5)C2=O)cc1 (stereo unspecified) , which is 37.3 µM (inactive)

---

Tested on: Hs-578T
Procedure details: NCI tumour cell line growth inhibition, 48 h
The source made the active and inactive calls. Rule as the data show it: active = GI50 up to about 1.1 µM and inactive = higher.
Allowed answers: True for active, False for inactive

{"Compound": "NCC(=O)NC1(c2cc3ccccc3s2)CCCCC1", "Assigned category": "False"}
{"Compound": "N#Cc1c(-c2cccc(Cl)c2)cc(-c2ccc(Cl)cc2)nc1N", "Assigned category": "False"}

Qu. Assay result, entry O=c1[nH]nc(Cc2ccccc2)n1/N=C/c1ccncc1 — outcome?
Ans. False

Qu. Assay result, entry CC(C)[Si]1(C(C)C)OCC2OC(n3ccc(=O)[nH]c3=O)C([Se]c3ccccc3)C2O[Si](C(C)C)(C(C)C)O1 (stereo unspecified) — outcome?
Ans. True

---

Test system: MDA-MB-435
Procedure details: NCI tumour cell line growth inhibition, 48 h
Active and inactive are the calls of the source. Cut-off read from the data, not from the text of the source: active = GI50 up to about 1.1 µM and inactive = higher.
Each entry below lists one item and its recorded GI50 value.

Known GI50 results, listed for orientation:
{"Compound": "Cc1ccc(S(=O)(=O)ON2C(=O)c3c(N)c(C#N)c(-c4ccccc4)c(-c4ccccc4)c3C2=O)cc1", "System under test": "MDA-MB-435", "GI50": "9.77 µM (inactive)"}
{"Compound": "CCOC(=O)C1(C(=O)OCC)C[C@]23OCCC(=O)[C@H]2[C@H]2C(=O)OC(C)(C)O[C@]23C1", "System under test": "MDA-MB-435", "GI50": "> 100 µM (inactive)"}
{"Compound": "O=C1c2ccccc2C2(c3ccc(F)cc3)NCCN12 (stereo not given)", "System under test": "MDA-MB-435", "GI50": "> 100 µM (inactive)"}
{"Compound": "c1ccc(COCC23CCN(Cc4ccccc4)C(CC(OCc4ccccc4)C2)S3)cc1 (stereo not given)", "System under test": "MDA-MB-435", "GI50": "46 µM (inactive)"}
{"Compound": "C[C@]12C[C@H](c3ccccc3)Nc3ccccc3N1C(c1ccccc1)=NO2", "System under test": "MDA-MB-435", "GI50": "35.5 µM (inactive)"}
{"Compound": "O=C(Cn1nnc(-c2ccccc2)n1)N/N=C/c1cn(Cc2ccc(Cl)cc2Cl)c2ccccc12", "System under test": "MDA-MB-435", "GI50": "> 100 µM (inactive)"}
{"Compound": "CC1(CC(=O)O)OC2CCCCCC2O1.NCc1ccccc1 (stereo not given)", "System under test": "MDA-MB-435", "GI50": "> 100 µM (inactive)"}
{"Compound": "CN(C)CCCn1c(Cc2ccc(Cl)cc2)nc2cc(C(F)(F)F)ccc21", "System under test": "MDA-MB-435", "GI50": "12.9 µM (inactive)"}
{"Compound": "Cc1ccc2c3c1O[C@H]1c4[nH]c5ccccc5c4C[C@@]4(O)[C@@H](C2)N(C)CC[C@]314", "System under test": "MDA-MB-435", "GI50": "14.5 µM (inactive)"}

# input for lookup
Bench note, MDA-MB-435: entry COC(=O)CSc1nc2[nH]c(SC)c(C(N)=O)c2c(=O)n1-c1ccccc1 , its GI50 = > 10 µM (inactive)

---

Each entry below lists one item and its recorded GI50 value.
Tested on: 786-0
Procedure details: NCI tumour cell line growth inhibition, 48 h
Active and inactive are the calls of the source. No stated cut-off is given here; in the data, active = GI50 up to about 1.1 µM and inactive = higher.

Known GI50 results, listed for orientation:
{"Compound": "COCN/C(N)=N/C#N", "System under test": "786-0", "GI50": "80.4 µM (inactive)"}
{"Compound": "C[C@]12CC[C@H]3[C@@H](CCC4=CC(=O)C=C[C@@]43O)[C@@H]1CCC2=O", "System under test": "786-0", "GI50": "> 100 µM (inactive)"}
{"Compound": "Nc1n[n+]([O-])c2cnccc2[n+]1[O-]", "System under test": "786-0", "GI50": "70.6 µM (inactive)"}
{"Compound": "CN1CCN(c2cc3nc4cc(O)cc(O)c4c(O)c3cc2N)CC1", "System under test": "786-0", "GI50": "38.7 µM (inactive)"}
{"Compound": "O=C(NC1CCN(Cc2ccccc2)CC1)c1ccc(I)cc1", "System under test": "786-0", "GI50": "97.5 µM (inactive)"}
{"Compound": "N#Cc1nc(-c2cccs2)oc1N", "System under test": "786-0", "GI50": "> 100 µM (inactive)"}
{"Compound": "COc1ccc(O[C@H](COCc2ccccc2)C[C@@H]2COC(C)(C)O2)cc1", "System under test": "786-0", "GI50": "> 100 µM (inactive)"}
{"Compound": "Cc1ccccc1C(CCCO)C(=O)O (stereo unspecified)", "System under test": "786-0", "GI50": "> 100 µM (inactive)"}

Kindly note the recorded GI50 for COC(=O)C1CCC(=S)N1C(=O)OCc1ccccc1 (stereo unspecified) , which is > 100 µM (inactive)

Kindly note the recorded GI50 for COc1ccc2c(O)c(Oc3ccc(Cl)cc3)c(=O)oc2c1 , which is > 100 µM (inactive)

Kindly note the recorded GI50 for C[C@]12CC[C@H](O)CC1=CC[C@@H]1C2CC[C@]2(C)Nc3c(cnn3-c3ccccc3)CC12 (stereo partly specified) , which is 1.56 µM (inactive)
